Target: uterine OT receptors (Rattus norvegicus, UniProt P70536)
Construct: from tissue; host or cells: uterus of DES-treated rats, crude membranes
Sequence (P70536 whole entry): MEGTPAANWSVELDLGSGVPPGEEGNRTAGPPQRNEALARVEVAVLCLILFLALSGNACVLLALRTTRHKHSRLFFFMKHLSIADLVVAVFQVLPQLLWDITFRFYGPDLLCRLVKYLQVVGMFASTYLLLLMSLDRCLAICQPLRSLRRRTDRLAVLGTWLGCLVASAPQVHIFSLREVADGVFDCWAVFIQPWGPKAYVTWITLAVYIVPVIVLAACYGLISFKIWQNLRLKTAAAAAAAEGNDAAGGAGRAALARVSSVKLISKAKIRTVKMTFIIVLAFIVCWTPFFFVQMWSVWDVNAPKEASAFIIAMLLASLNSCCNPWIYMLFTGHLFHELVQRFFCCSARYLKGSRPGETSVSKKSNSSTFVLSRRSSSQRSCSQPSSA
Experiment: [^3 H]OT binding to uterine OT receptors, crude membrane preparation of uteri from DES-treated rats
Settings: rat uterus membranes, 1 nM [^3 H]OT; read-out: Receptor Binding Results IC50 (nM) [^3 H]OT
Numbered stars: 1 amine (or outer) side, 2 acyl side, 3 side chain; on linkers, the order of the positions; unused ones are H or OH. Square brackets hold non-standard residues; d marks the D form. Peptide text beside a SMILES is read from it. * marks the point of attachment. dPhe(4-NH2) = Nc1ccc(C[C@@H](N)C(=O)O)cc1; dPiz(1,6-dehydro) = O=C(O)[C@H]1CCC=NN1; Ethyl(2-morpholino) = C1CN(CC*)CCO1; d(aIle) = CC[C@H](C)[C@@H](N)C(=O)O; dNMeY = CN[C@H](Cc1ccc(O)cc1)C(=O)O; Ethylenediamine = C(CN[*:2])N[*:1]; Pip(4-aza) = O=C(O)[C@@H]1CNCCN1; dNMeF = CN[C@H](Cc1ccccc1)C(=O)O; hPhe = N[C@@H](CCc1ccccc1)C(=O)O; Cha = N[C@@H](CC1CCCCC1)C(=O)O; Pip = O=C(O)[C@@H]1CCCCN1; dPip = O=C(O)[C@H]1CCCCN1; Cbz = O=C(OCc1ccccc1)*; Me2Gly = CN(C)CC(=O)*
Known IC50 of a selection of compounds
Measured quantity: IC50 (nM)

[
  {
    "Compound": "CN1C(=O)[C@@H]2CCCCN2C(=O)[C@H]2CCCCN2C(=O)[C@H](CCc2ccccc2)NC(=O)[C@@H](Cc2ccccc2)NC(=O)[C@@H]2CCCN2C(=O)[C@H]1Cc1ccccc1 [Example 135] (cyclo(P[dF][hPhe][dPip][Pip][dNMeF]))",
    "Target system": "uterine OT receptors (Rattus norvegicus, UniProt P70536)",
    "Value unit": "nM",
    "Readout qualifier": "=",
    "Experimental result": 3400
  },
  {
    "Compound": "CC[C@H](C)[C@@H]1NC(=O)[C@@H](Cc2c[nH]c3ccccc23)NC(=O)[C@@H]2CCCN2C(=O)[C@@H](Cc2ccccc2)N(C)C(=O)[C@H](CCCCNC(=O)OCc2ccccc2)NC(=O)[C@H]2CCCCN2C1=O [Example 35] (cyclo(I[dPip]K(Cbz)[dNMeF]P[dW]))",
    "Target system": "uterine OT receptors (Rattus norvegicus, UniProt P70536)",
    "Value unit": "nM",
    "Readout qualifier": ">",
    "Experimental result": 100
  },
  {
    "Compound": "CC[C@H](C)[C@@H]1NC(=O)[C@@H](Cc2ccccc2)NC(=O)[C@@H]2CCCN2C(=O)C(Cc2cccnc2)NC(=O)[C@@H]2CCCCN2C(=O)[C@H]2CCCCN2C1=O (single isomer, unassigned) [Example 10 (isomer 2)]",
    "Target system": "uterine OT receptors (Rattus norvegicus, UniProt P70536)",
    "Value unit": "nM",
    "Readout qualifier": "=",
    "Experimental result": 1000
  },
  {
    "Compound": "O=C1N[C@@H](CC2CCCCC2)C(=O)N2CCC[C@@H]2C(=O)N2CCC[C@H]2C(=O)N[C@H](Cc2ccccc2)C(=O)N2CCC[C@H]2C(=O)N[C@@H]1Cc1ccccc1 [Example 56] (cyclo([dF]P[dF][Cha][dP]P))",
    "Target system": "uterine OT receptors (Rattus norvegicus, UniProt P70536)",
    "Value unit": "nM",
    "Readout qualifier": ">",
    "Experimental result": 10000
  },
  {
    "Compound": "CC[C@H](C)[C@@H]1NC(=O)C(Cc2c[nH]c3ccc(F)cc23)NC(=O)[C@@H]2CCCN2C(=O)[C@@H](Cc2c[nH]cn2)NC(=O)[C@@H]2CCCCN2C(=O)[C@H]2CCCCN2C1=O (single isomer, unassigned)",
    "Target system": "uterine OT receptors (Rattus norvegicus, UniProt P70536)",
    "Value unit": "nM",
    "Readout qualifier": "=",
    "Experimental result": 590
  },
  {
    "Compound": "CC[C@H](C)[C@@H]1NC(=O)[C@@H](Cc2ccccc2)NC(=O)[C@@H]2CCCN2C(=O)[C@@H](Cc2ccc(N)cc2)NC(=O)[C@@H]2CCCCN2C(=O)[C@H]2CCCCN2C1=O [Example 48] (cyclo(I[dPip][Pip][dPhe(4-NH2)]P[dF]))",
    "Target system": "uterine OT receptors (Rattus norvegicus, UniProt P70536)",
    "Value unit": "nM",
    "Readout qualifier": "=",
    "Experimental result": 250
  },
  {
    "Compound": "CC[C@H](C)[C@@H]1NC(=O)[C@@H](Cc2ccccc2)NC(=O)[C@@H]2CCCN2C(=O)[C@@H](Cc2ccccc2)NC(=O)[C@@H]2CNCCN2C(=O)[C@H]2CCCN2C1=O [Example 164] (cyclo(I[dP][Pip(4-aza)][dF]P[dF]))",
    "Target system": "uterine OT receptors (Rattus norvegicus, UniProt P70536)",
    "Value unit": "nM",
    "Readout qualifier": "=",
    "Experimental result": 1300
  },
  {
    "Compound": "CCOc1ccc(C[C@H]2NC(=O)[C@@H]3CCCN3C(=O)[C@@H](Cc3ccccc3)NC(=O)[C@H](CC(N)=O)NC(=O)[C@@H](CCC(N)=O)NC(=O)[C@@H]([C@@H](C)CC)NC2=O)cc1 [Example 101] (cyclo(N[dF]P[dY](Et)[d(aIle)][dQ]))",
    "Target system": "uterine OT receptors (Rattus norvegicus, UniProt P70536)",
    "Value unit": "nM",
    "Readout qualifier": ">",
    "Experimental result": 10000
  },
  {
    "Compound": "CC[C@@H](C)[C@H]1NC(=O)[C@H](Cc2ccccc2)NC(=O)[C@H]2CCCN2C(=O)[C@H](Cc2ccccc2)NC(=O)[C@H]2CCCN2C(=O)[C@@H]2CCCN2C1=O [Example 60] (cyclo(F[dI]P[dP]F[dP]))",
    "Target system": "uterine OT receptors (Rattus norvegicus, UniProt P70536)",
    "Value unit": "nM",
    "Readout qualifier": ">",
    "Experimental result": 10000
  },
  {
    "Compound": "CC[C@H](C)[C@@H]1NC(=O)[C@@H](Cc2ccccc2)NC(=O)[C@@H]2CCCN2C(=O)[C@@H](Cc2ccccc2)N(C)C(=O)[C@H](CC(=O)NCCN)NC(=O)[C@H]2CCCCN2C1=O [Example 119] (cyclo(D(Ethylenediamine)[dNMeF]P[dF]I[dPip]))",
    "Target system": "uterine OT receptors (Rattus norvegicus, UniProt P70536)",
    "Value unit": "nM",
    "Readout qualifier": "=",
    "Experimental result": 260
  },
  {
    "Compound": "CC[C@H](C)[C@@H]1NC(=O)[C@@H](Cc2ccc(OC)cc2)NC(=O)[C@@H]2CCCN2C(=O)[C@@H](Cc2ccccc2)N(C)C(=O)[C@H](CCCCN)NC(=O)[C@H]2CCCCN2C1=O [Example 150] (cyclo(I[dPip]K[dNMeF]P[dY](Me)))",
    "Target system": "uterine OT receptors (Rattus norvegicus, UniProt P70536)",
    "Value unit": "nM",
    "Readout qualifier": "=",
    "Experimental result": 44
  },
  {
    "Compound": "CC[C@H](C)[C@@H]1NC(=O)[C@@H](Cc2ccccc2)NC(=O)[C@@H]2CCCN2C(=O)[C@@H](Cc2ccc(OCCN3CCOCC3)cc2)N(C)C(=O)[C@@H]2CCCCN2C(=O)[C@H]2CCCCN2C1=O [Example 50] (cyclo(I[dPip][Pip][dNMeY](Ethyl(2-morpholino))P[dF]))",
    "Target system": "uterine OT receptors (Rattus norvegicus, UniProt P70536)",
    "Value unit": "nM",
    "Readout qualifier": "=",
    "Experimental result": 310
  },
  {
    "Compound": "CC[C@H](C)[C@@H]1NC(=O)[C@@H](Cc2ccccc2)NC(=O)[C@@H]2CCCN2C(=O)[C@@H](Cc2ccccc2)N(C)C(=O)[C@H](CCCNC(=N)N)NC(=O)[C@H]2CCC=NN2C1=O [Example 131] (cyclo(I[dPiz(1,6-dehydro)]R[dNMeF]P[dF]))",
    "Target system": "uterine OT receptors (Rattus norvegicus, UniProt P70536)",
    "Value unit": "nM",
    "Readout qualifier": "=",
    "Experimental result": 7.2
  },
  {
    "Compound": "CC[C@H](C)[C@@H]1NC(=O)[C@@H](Cc2c[nH]c3ccccc23)NC(=O)[C@@H]2CCCN2C(=O)[C@@H](Cc2c[nH]c3ccccc23)NC(=O)[C@@H]2CNCCN2C(=O)[C@H]2CCCCN2C1=O [Example 88] (cyclo(I[dPip][Pip(4-aza)][dW]P[dW]))",
    "Target system": "uterine OT receptors (Rattus norvegicus, UniProt P70536)",
    "Value unit": "nM",
    "Readout qualifier": "=",
    "Experimental result": 18
  },
  {
    "Compound": "CC[C@H](C)[C@@H]1NC(=O)[C@@H](Cc2ccccc2)NC(=O)[C@@H]2CCCN2C(=O)[C@@H](Cc2ccc(NC(=O)CN(C)C)cc2)NC(=O)[C@@H]2CCCCN2C(=O)[C@H]2CCCCN2C1=O [Example 49] (cyclo(I[dPip][Pip][dPhe(4-NH2)](Me2Gly)P[dF]))",
    "Target system": "uterine OT receptors (Rattus norvegicus, UniProt P70536)",
    "Value unit": "nM",
    "Readout qualifier": "=",
    "Experimental result": 320
  }
]
